STUDY_SYSTEM: T1, 5-domain TAT10772 (human)
T1 construct: Recombinant portion of the extracellular domain, expressed in CHO cells; also called 5-mucin domain
T1 chain: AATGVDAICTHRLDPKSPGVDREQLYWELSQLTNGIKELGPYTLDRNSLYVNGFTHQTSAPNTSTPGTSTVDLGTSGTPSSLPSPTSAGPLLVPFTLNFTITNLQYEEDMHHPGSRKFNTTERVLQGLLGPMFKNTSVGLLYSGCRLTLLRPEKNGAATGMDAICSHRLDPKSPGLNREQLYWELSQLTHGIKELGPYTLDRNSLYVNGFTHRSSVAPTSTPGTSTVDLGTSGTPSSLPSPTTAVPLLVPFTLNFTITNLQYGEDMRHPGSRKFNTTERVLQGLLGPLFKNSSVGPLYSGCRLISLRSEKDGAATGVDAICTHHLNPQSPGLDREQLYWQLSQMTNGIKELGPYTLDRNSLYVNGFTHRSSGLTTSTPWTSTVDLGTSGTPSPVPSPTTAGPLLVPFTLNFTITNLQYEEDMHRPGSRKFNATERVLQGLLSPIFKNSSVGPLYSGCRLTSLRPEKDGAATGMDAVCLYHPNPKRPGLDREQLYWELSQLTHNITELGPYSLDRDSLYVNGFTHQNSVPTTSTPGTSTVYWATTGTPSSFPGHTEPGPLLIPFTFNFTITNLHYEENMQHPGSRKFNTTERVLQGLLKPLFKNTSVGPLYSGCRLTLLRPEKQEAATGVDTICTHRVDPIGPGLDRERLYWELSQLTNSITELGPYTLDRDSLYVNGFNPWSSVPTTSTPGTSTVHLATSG
PROTOCOL_NOTES: Biacore SPR, 5′-domain TAT10772 over immobilized IgG
pKd: −log10 of the molar value.
Collected pKd values appear next to each entry.

| BINDER | pKd |
| --- | --- |
| 3A5 chimera (mu3A5-H; SEQ ID NO: 11) (antibody, V domains shown, IgG; also called chimeric 3A5; chimeric antibody) VH: DVQLQESGPGLVNPSQSLSLTCTVTGYSITNDYAWNWIRQFPGNKLEWMGYINYSGYTTYNPSLKSRISITRDTSKNQFFLHLNSVTTEDTATYYCARWDGGLTYWGQGTLVTVSA VL: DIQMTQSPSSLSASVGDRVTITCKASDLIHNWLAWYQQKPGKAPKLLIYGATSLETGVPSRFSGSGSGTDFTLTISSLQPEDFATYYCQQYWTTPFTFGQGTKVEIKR | 8.57 |
| 3A5v1 (SEQ ID NO: 198) (antibody, V domains shown, Humanized IgG) VH: EVQLVESGGGLVQPGGSLRLSCAASGYSITNDYAWNWVRQAPGKGLEWVGYINYSGYTTYNPSLKSRFTISRDTSKNTLYLQMNSLRAEDTAVYYCARWASGLDYWGQGTLVTVSS VL: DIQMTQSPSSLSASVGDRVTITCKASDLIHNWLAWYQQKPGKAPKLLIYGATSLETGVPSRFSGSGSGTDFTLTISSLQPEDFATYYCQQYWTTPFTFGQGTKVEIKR | 8.32 |
| 3A5v3 (SEQ ID NO: 200) (antibody, V domains shown, Humanized IgG) VH: EVQLVESGGGLVQPGGSLRLSCAASGYSITNDYAWNWVRQAPGKGLEWVGYINYSGYTTYNPSLKSRFTISRDTSKNTFYLQMNSLRAEDTAVYYCARWASGLSYWGQGTLVTVSS VL: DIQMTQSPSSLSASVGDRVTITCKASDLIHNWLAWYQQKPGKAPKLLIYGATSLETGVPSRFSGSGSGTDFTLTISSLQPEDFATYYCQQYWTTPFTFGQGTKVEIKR | 8.44 |
| 3A5v8 (SEQ ID NO: 205) (antibody, V domains shown, Humanized IgG) VH: EVQLVESGGGLVQPGGSLRLSCAASGYSITNDYAWNWVRQAPGKGLEWVGYINYSGYTTYNPSLKSRFTISRDTSKNTLYLQMNSLRAEDTAVYYCARWTSGLDSWGQGTLVTVSS VL: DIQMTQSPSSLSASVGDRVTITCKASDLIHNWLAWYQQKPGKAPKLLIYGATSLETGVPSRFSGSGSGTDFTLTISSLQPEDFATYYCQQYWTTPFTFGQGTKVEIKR | 8.64 |
| 3A5v2 (SEQ ID NO: 199) (antibody, V domains shown, Humanized IgG) VH: EVQLVESGGGLVQPGGSLRLSCAASGYSITNDYAWNWVRQAPGKGLEWVGYINYSGYTTYNPSLKSRFTISRDTSKNTFYLQMNSLRAEDTAVYYCARWASGLSHWGQGTLVTVSS VL: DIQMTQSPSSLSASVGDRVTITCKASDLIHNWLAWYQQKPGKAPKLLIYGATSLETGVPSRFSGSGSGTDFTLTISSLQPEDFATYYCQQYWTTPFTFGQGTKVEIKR | 8.44 |
| 3A5.F-graft (SEQ ID NO: 13), IgG (antibody, V domains shown, IgG) VH: EVQLVESGGGLVQPGGSLRLSCAASGYSITNDYAWNWVRQAPGKGLEWVGYINYSGYTTYNPSLKSRFTISRDNSKNTFYLQMNSLRAEDTAVYYCARWDGGLTYWGQGTLVTVSS VL: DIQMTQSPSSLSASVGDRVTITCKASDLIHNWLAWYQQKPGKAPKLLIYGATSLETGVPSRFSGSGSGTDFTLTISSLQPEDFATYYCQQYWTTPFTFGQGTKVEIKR | 8.00 |
